Reported protein stability index values follow for various variants
B1: VDR (parent)
chain: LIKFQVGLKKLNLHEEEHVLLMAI

variants of: B1; assay: protein stability index of a GFP-peptide fusion (GPS, HEK-293T) (PSI 1-6); higher = more stable; details: c terminus: a fixed tail appended;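 note: lentivirally expressed fusions sorted by FACS into six bins by GFP to DsRed ratio, PSI derived from sequencing read proportions per bin multiplied by bin number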
Quick one: just the number, no unit, thanks!

// known answers, use as guide
1) E15Y    1.94
2) V6D    1.47
3) L11I    3.2
4) L20M    2.15
5) L20F    2.29

So, `M22P` ? Its protein stability index was 2.09

So, `L11C` ? Its protein stability index was 3.35

So, `L8F` ? Its protein stability index was 3.06

So, `G7H` ? Its protein stability index was 3.58

So, `M22G` ? Its protein stability index was 2.01

So, `E16N` ? Its protein stability index was 2.09

So, `F4W` ? Its protein stability index was 1.5

So, `I2D` ? Its protein stability index was 2.05
